Each item that follows carries a reported % binding relative to WT TGF-β1 (100 %).
target: HA-tagged mouse-human-mouse chimeric TGF-β1, mouse LAP residues 201-222 replaced by the corresponding human LAP segment, on HEK-293T cells co-transfected with GARP (mouse; human) (UniProt P04202); assay: flow cytometry, HEK-293T cells co-transfected with mGarp and the HA-tagged TGF-β1 construct
I'd appreciate it if you included the unit after the number.

Solved cases (2 shown):
LMT-2 (6D12) (antibody, V domains shown) VH: EVQLVESGGGLVQPGGSLRLSCAASGFTFSNYGVHWVRQAPGKGLEWVSHISAAGISRYYADAVKGRFTMSRDNGKNTLYLQMNGLKSEDTAVYYCAKDRIRSSYEYDSWGQGTQVTVSS VL: LPVLTQLSSMSGSPGQTVTITCTGSSSNIGGGYYLSWYQQLPGTAPKLLIYNANNRASGVPNRFSGSKSGNLASLTITGLQAEDEADYYCGCYDSSLSTGYVFGGGTKLTVL	2%
LHT-22 (15A2) (antibody, V domains shown) VH: ELQLVESGGGLVQPGGSLRLSCAASGFTFDDYTMNWVRQAPGKGLEWVSAIRWNGVTTYYAESMKGRFTVSRDNGNNTLYLQMNSLKAEDTAVYYCAKGGSIDLTYGMDYWGKGTLVTVSS VL: QAVVTQEPSLSVSPGGTVTITCGLSSGSVTRNNYPDWYQQTPGQAPRLLLYNTVARHSGVPSRFSGSISGNKAALTITGAQPEDEAGYYCALYMYTGSNNGRVFGGGTLLTVL	89%

Inquiry: Give the measured % binding relative to WT TGF-β1 (100 %) of LMT-10 (20G4) (antibody, V domains shown) VH: QVQLVESGGGLVQPGGSLTLSCAASGFTFSNYYMTWVRQAPGKGLEWVSSIYSTGSHTYYADSVKGRFTISRDNAKDTLYLQMNDLKSEDTAVYYCAKNIYTYYTAHYAGMDYWGKGTLVTVSS VL: QSALTQPSTVSVSLGQMARITCQGGSLGSYDAHWYQQKPGQAPVLVIHDDNSRPSGIPERFSGSRSGGTATLTISGAQADDEGVYFCHSYDSSANAPVFGGGTELTVL .
Reply text: 126%

Inquiry: Give the measured % binding relative to WT TGF-β1 (100 %) of LMT-9 (20G3) (antibody, V domains shown) VH: LQLVESGGGLVQPGGSLRLSCAASGFTFSRSGMAWVRQAPGKGLEWVSAITPGGTATYYANSVKGRVTMSRDNAKNTLYLQMNSLKSEDTAVYYCAKGLVSSGLNGMDYWGKGTLVTVSS VL: QSVLTQLSSMSGSPGQTVTITCTGSSSNIGGGYYLSWYQQLPGTAPKLLIYNTNNRASGVPNRFSGSKTGSLASLTITGLQAEDEADYYCGCYDDSLNTYVFGGGTKLTVL .
Reply text: 2%

Inquiry: Give the measured % binding relative to WT TGF-β1 (100 %) of LHT-18 (14E7) (antibody, V domains shown) VH: QVQLVESGGGLVQPGGSLRLSCAASGFTFSHYWMYWVRQAPGKGLEWVSAINTGGGITYYTDSVKGRFTVSRDNAKNTLYLQMNSLKSEDTAVYYCAKSRYGVVITTTYFGGVDYWGKGTLVTVSS VL: SSALTQPSAVSVSLGQTARITCQGGNFGSYYASWYQQKPGQAPVQVIYGNSNRPSGIPERFSGSSSGDTATLTISGAQAEDEADYYCLSYESSGYAVFGGGTHLTVL .
Reply text: 63%

Inquiry: Give the measured % binding relative to WT TGF-β1 (100 %) of LMT-12 (14D7) (antibody, V domains shown) VH: EVQLVESGGGLVQPGGSLRLSCAASGFTFSSYYMYWVRQAPGKGLEWVSGTSIGGGSTWYADSVKGRFTISRDNAKNTLYLQMNNLKSEDTAVYYCAKDLNSRSYKGMGDWGQGTQVTVSS VL: QPALTQLSSMSGSPGQTVTITCTGSSSNIGGGYYLNWYQQLPGAAPKLVIYNANNRASGVPDRFSGSKSGNLASLTITGLQAEDEAVYFCGCYDSSLSSVVFGGGTHLTVL .
Reply text: 3%
